These measurements were taken from patent US9828378B2.

Molecular target: PI3K γ (Homo sapiens (Human))
Sequence (P48736 whole entry): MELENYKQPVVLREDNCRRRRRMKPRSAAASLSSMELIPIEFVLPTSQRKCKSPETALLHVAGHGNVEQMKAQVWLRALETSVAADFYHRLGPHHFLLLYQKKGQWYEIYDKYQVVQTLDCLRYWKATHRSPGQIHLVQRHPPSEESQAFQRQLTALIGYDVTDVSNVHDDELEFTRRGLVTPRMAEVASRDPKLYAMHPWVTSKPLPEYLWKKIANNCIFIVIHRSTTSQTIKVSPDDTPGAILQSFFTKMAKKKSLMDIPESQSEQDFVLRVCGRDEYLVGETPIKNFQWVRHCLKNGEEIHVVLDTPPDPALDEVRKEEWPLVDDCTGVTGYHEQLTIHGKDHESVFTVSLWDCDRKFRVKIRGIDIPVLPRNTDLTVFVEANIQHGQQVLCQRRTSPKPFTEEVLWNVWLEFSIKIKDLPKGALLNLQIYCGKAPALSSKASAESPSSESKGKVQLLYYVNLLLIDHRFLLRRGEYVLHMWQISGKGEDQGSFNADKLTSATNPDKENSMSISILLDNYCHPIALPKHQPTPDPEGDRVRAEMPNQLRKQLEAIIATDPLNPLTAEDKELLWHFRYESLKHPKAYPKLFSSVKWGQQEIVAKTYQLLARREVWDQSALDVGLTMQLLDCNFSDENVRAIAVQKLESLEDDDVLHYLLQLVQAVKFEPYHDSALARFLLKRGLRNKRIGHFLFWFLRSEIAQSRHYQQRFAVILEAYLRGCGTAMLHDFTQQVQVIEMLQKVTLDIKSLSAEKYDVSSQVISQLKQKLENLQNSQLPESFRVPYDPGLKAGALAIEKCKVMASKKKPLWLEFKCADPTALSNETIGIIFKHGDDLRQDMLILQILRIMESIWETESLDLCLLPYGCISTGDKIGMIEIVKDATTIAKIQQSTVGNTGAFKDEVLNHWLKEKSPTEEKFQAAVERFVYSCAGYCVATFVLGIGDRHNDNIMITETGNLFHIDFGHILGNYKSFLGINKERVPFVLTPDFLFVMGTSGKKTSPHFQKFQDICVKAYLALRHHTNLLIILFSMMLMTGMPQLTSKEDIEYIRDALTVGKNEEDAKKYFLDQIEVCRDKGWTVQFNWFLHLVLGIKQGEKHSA
Assay: PI3K γ inhibition assay
Type: biochemical
Details: Table 1; read-out: PI3K γ IC50
pIC50: −log10 of the molar value.
This listing pairs compounds with measured pIC50.
measured-parameter: pIC50

Nc1ncnc2c1c(-c1cc3c(Cl)cccc3[nH]1)nn2C1CCOCC1 [Compound 48] : < 6.30
CC(C)n1nc(-c2cc3c(Cl)ccc(O)c3[nH]2)c2c(N)ncnc21 [Compound 39] : < 6.30
CN1CCN(C2CC(n3nc(-c4cc5cc(O)ccc5[nH]4)c4c(N)ncnc43)C2)CC1 (centres unmarked) [Compound 52] : < 6.30
CC(C)n1nc(-c2cc3cc(O)c(Cl)cc3[nH]2)c2c(N)ncnc21 [Compound 32] : < 6.30
CN1CCN(C2CCC(n3nc(-c4cc5cc(O)ccc5[nH]4)c4c(N)ncnc43)CC2)CC1 (centres unmarked) [Compound 58] : < 6.30
CC(C)N1CCC(n2nc(-c3cc4cccc(O)c4[nH]3)c3c(N)ncnc32)CC1 [Compound 64] : > 6.30
Nc1ncnc2c1c(-c1cc3cc(O)ccc3[nH]1)nn2CCN1CCOCC1 [Compound 33] : < 6.30
Nc1ncnc2c1c(-c1cc3cc(O)ccc3[nH]1)nn2C1CCCCC1 [Compound 26] : > 6.30

* * *

Target: UniProt:P48736
Test: PI3K γ inhibition assay
Format: biochemical
Conditions: Table 1; read-out: PI3K γ IC50
pIC50: −log10 of the molar value.
This listing pairs compounds with measured pIC50.
measured-parameter: pIC50

Nc1ncnc2c1c(-c1cc3cc(O)ccc3[nH]1)nn2C1CC(=O)C1 : < 6.30
Nc1ncnc2c1c(-c1cc3cccc(O)c3[nH]1)nn2C1CCOCC1 : < 6.30
COCCn1nc(-c2cc3cc(O)ccc3[nH]2)c2c(N)ncnc21 : < 6.30
CC(C)N1CCC(n2nc(-c3cc4cc(O)cc(Cl)c4[nH]3)c3c(N)ncnc32)CC1 : < 6.30
CC(C)n1nc(-c2cc3cccc(Cl)c3[nH]2)c2c(N)ncnc21 : > 6.30
Nc1ncnc2c1c(-c1cc3cccc(Cl)c3[nH]1)nn2C1CCOCC1 : > 6.30
COc1cc(Cl)c2[nH]c(-c3nn(C4CCOCC4)c4ncnc(N)c34)cc2c1 : < 6.30
CC(C)N1CCC(n2nc(-c3cc4c(Cl)ccc(O)c4[nH]3)c3c(N)ncnc32)CC1 : < 6.30
COc1cccc2cc(-c3nn(C4CCN(C(=O)C5CC5)CC4)c4ncnc(N)c34)[nH]c12 : < 6.30
CC(C)n1nc(-c2cc3c(O)cccc3[nH]2)c2c(N)ncnc21 : > 6.30
CC(=O)N1CCC(n2nc(-c3cc4ccc(O)cc4[nH]3)c3c(N)ncnc32)CC1 : > 7.60
Nc1ncnc2c1c(-c1cc3cc(O)ccc3[nH]1)nn2C1CC(N2CCOCC2)C1 (stereo not shown) : > 6.30
Nc1ncnc2c1c(-c1cc3cc(O)cc(Cl)c3[nH]1)nn2C1CCOCC1 : > 7.30
Nc1ncnc2c1c(-c1cc3ccc(O)cc3[nH]1)nn2C1CCOCC1 : > 7.00
COc1ccc2cc(-c3nn(C4CCOCC4)c4ncnc(N)c34)[nH]c2c1 : < 6.30
Nc1ncnc2c1c(-c1cc3cccc(O)c3[nH]1)nn2C1CCN(C(=O)C2CC2)CC1 : > 7.30
CNC(=O)Cn1nc(-c2cc3cc(O)ccc3[nH]2)c2c(N)ncnc21 : < 6.30
Nc1ncnc2c1c(-c1cc3cc(O)ccc3[nH]1)nn2C1CCC(N2CCOCC2)CC1 (stereo not shown) : < 6.30
Nc1ncnc2c1c(-c1cc3cc(O)ccc3[nH]1)nn2C1CC(O)C1 (stereo not shown) : < 6.30

* * *

System: PC3
Test: Tumor cell line proliferation assay (Alamar Blue)
Type: cell-based
Settings: Homo sapiens, PC-3; Table 1; PC3 cells; read-out: PC3 proliferation
pIC50: −log10 of the molar value.
measured-parameter: pIC50

CC(C)n1nc(-c2cc3c(Cl)c(O)ccc3[nH]2)c2c(N)ncnc21 : > 6.30

* * *

Target: UniProtKB O00329
Assay: PI3K δ inhibition assay
Type: biochemical
Details: Table 1; read-out: PI3K δ IC50
pIC50: −log10 of the molar value.
This listing pairs compounds with measured pIC50.
measured-parameter: pIC50

CC(C)N1CCC(n2nc(-c3cc4c(Cl)ccc(O)c4[nH]3)c3c(N)ncnc32)CC1 [Compound 71] : < 6.30
Nc1ncnc2c1c(-c1cc3cc(O)cc(Cl)c3[nH]1)nn2C1CCOCC1 [Compound 68] : > 7.60
COc1cc(Cl)c2[nH]c(-c3nn(C4CCOCC4)c4ncnc(N)c34)cc2c1 [Compound 67] : < 6.30
Nc1ncnc2c1c(-c1cc3cccc(O)c3[nH]1)nn2C1CCCC1 [Compound 36] : > 6.30

* * *

This listing pairs molecules with measured pIC50.
Target: PI3K δ (Homo sapiens (Human), UniProt O00329)
Sequence (O00329 whole entry): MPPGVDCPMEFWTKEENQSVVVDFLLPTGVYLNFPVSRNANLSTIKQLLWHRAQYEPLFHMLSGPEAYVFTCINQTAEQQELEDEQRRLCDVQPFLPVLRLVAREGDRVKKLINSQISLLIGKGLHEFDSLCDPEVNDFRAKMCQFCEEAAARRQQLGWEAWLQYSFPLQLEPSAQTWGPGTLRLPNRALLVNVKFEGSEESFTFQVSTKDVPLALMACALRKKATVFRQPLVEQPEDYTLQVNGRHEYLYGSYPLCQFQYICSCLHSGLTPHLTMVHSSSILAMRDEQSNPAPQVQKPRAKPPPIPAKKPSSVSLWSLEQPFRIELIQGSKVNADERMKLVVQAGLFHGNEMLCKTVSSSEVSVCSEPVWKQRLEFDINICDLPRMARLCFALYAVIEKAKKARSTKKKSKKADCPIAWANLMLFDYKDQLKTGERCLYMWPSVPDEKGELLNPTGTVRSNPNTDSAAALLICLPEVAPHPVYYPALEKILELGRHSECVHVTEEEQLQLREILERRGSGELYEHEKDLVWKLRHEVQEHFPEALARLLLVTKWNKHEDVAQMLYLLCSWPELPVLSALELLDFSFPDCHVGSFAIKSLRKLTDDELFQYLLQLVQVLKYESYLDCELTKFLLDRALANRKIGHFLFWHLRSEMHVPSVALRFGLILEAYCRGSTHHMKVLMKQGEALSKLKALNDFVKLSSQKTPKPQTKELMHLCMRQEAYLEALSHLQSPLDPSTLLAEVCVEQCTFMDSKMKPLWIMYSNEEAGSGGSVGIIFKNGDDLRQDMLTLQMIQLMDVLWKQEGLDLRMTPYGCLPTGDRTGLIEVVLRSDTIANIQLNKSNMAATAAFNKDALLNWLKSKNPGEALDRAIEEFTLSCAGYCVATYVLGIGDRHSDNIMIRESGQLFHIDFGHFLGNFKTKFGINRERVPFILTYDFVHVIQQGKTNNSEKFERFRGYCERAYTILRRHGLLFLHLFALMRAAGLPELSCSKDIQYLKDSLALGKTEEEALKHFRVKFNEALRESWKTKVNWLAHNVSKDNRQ
Sequence (P27986 whole entry partner): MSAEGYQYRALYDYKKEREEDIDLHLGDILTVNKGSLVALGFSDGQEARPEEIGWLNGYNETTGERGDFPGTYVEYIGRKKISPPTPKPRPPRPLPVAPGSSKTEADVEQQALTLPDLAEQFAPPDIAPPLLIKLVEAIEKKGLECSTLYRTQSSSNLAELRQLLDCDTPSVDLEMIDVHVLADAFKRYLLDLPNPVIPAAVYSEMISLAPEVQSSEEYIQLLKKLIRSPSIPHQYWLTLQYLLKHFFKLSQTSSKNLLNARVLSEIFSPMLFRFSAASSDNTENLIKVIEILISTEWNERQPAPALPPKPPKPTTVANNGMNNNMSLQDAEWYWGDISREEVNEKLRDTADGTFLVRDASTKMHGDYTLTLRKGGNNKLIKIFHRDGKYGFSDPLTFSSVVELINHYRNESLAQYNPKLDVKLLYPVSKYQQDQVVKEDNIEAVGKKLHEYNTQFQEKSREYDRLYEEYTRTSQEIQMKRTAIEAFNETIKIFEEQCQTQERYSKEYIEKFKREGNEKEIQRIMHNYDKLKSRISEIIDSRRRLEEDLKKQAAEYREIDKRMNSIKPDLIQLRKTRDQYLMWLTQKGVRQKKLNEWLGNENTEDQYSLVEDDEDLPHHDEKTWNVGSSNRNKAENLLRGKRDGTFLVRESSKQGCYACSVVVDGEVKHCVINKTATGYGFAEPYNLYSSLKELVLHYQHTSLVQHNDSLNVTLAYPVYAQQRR
Assay: PI3K δ inhibition assay
Format: biochemical
Details: Table 1; read-out: PI3K δ IC50
pIC50: −log10 of the molar value.
measured-parameter: pIC50

CC(C)n1nc(-c2cc3c(Cl)ccc(O)c3[nH]2)c2c(N)ncnc21 : < 6.30
Nc1ncnc2c1c(-c1cc3c(Cl)cccc3[nH]1)nn2C1CCOCC1 : < 6.30
Cc1nccn1CCn1nc(-c2cc3cc(O)ccc3[nH]2)c2c(N)ncnc21 : < 6.30
CNC(=O)CCn1nc(-c2cc3cc(O)ccc3[nH]2)c2c(N)ncnc21 : < 6.30
Nc1ncnc2c1c(-c1cc3cc(O)ccc3[nH]1)nn2C1CCCCC1 : > 7.00
Nc1ncnc2c1c(-c1cc3cc(O)ccc3[nH]1)nn2CCN1CCOCC1 : < 6.30
COc1cccc2cc(-c3nn(C4CCOCC4)c4ncnc(N)c34)[nH]c12 : > 7.60
COc1ccc(Cl)c2cc(-c3nn(C4CCOCC4)c4ncnc(N)c34)[nH]c12 : < 6.30
CC(=O)N1CCC(n2nc(-c3cc4ccc(O)cc4[nH]3)c3c(N)ncnc32)CC1 : > 7.60
Nc1ncnc2c1c(-c1cc3cc(O)ccc3[nH]1)nn2CC(=O)N1CCOCC1 : < 6.30
CC(C)n1nc(-c2cc3c(O)cccc3[nH]2)c2c(N)ncnc21 : > 6.30
Nc1ncnc2c1c(-c1cc3cc(O)ccc3[nH]1)nn2Cc1cccnc1 : < 6.30
CC(C)n1nc(-c2cc3cccc(Cl)c3[nH]2)c2c(N)ncnc21 : > 6.30
CC(C)N1CCC(n2nc(-c3cc4cccc(O)c4[nH]3)c3c(N)ncnc32)CC1 : > 6.30
Nc1ncnc2c1c(-c1cc3cc(O)ccc3[nH]1)nn2C1CC(N2CCOCC2)C1 (stereo not drawn) : > 6.30
CCOC(=O)Cn1nc(-c2cc3cc(O)ccc3[nH]2)c2c(N)ncnc21 : < 6.30
CC(=O)N1CCC(n2nc(-c3cc4cc(O)cc(Cl)c4[nH]3)c3c(N)ncnc32)CC1 : > 7.60
Nc1ncnc2c1c(-c1cc3cccc(Cl)c3[nH]1)nn2C1CCOCC1 : > 6.30

* * *

This listing pairs compounds with measured IC50.
Target: PI3K δ (Homo sapiens (Human))
Test: PI3K δ inhibition assay
Assay type: biochemical
Details: Table 1; read-out: PI3K δ IC50
measured-parameter: IC50

COc1cccc2cc(-c3nn(C4CCN(C(=O)C5CC5)CC4)c4ncnc(N)c34)[nH]c12 : > 500 nM
Nc1ncnc2c1c(-c1cc3cccc(O)c3[nH]1)nn2C1CCOCC1 : < 100 nM
Nc1ncnc2c1c(-c1cc3cc(O)ccc3[nH]1)nn2C1CCOCC1 : < 100 nM

* * *

This listing pairs compounds with measured pIC50.
Molecular target: mTORC (Homo sapiens (Human))
Assay: mTOR kinase inhibition assay
Type: biochemical
Conditions: Table 1; read-out: mTORC IC50
pIC50: −log10 of the molar value.
measured-parameter: pIC50

CC(C)N1CCC(n2nc(-c3cc4c(Cl)ccc(O)c4[nH]3)c3c(N)ncnc32)CC1 : > 7.00
CC(C)n1nc(-c2cc3cc(O)c(Cl)cc3[nH]2)c2c(N)ncnc21 : > 6.30
CC(C)n1nc(-c2cc3ccc(C(N)=O)cc3[nH]2)c2c(N)ncnc21 : > 6.30
Nc1ncnc2c1c(-c1cc3cc(O)cc(Cl)c3[nH]1)nn2C1CCOCC1 : > 8.30

* * *

Molecular target: PI3K δ (Homo sapiens (Human), UniProt O00329)
Test: PI3K δ inhibition assay
Assay type: biochemical
Settings: Table 1; read-out: PI3K δ IC50
measured-parameter: IC50

CNC(=O)Cn1nc(-c2cc3cc(O)ccc3[nH]2)c2c(N)ncnc21 : > 500 nM
Nc1ncnc2c1c(-c1cc3cccc(O)c3[nH]1)nn2C1CCN(C(=O)C2CC2)CC1 : > 500 nM
CC(=O)N1CCC(n2nc(-c3cc4cc(O)ccc4[nH]3)c3c(N)ncnc32)CC1 : > 500 nM
COCCn1nc(-c2cc3cc(O)ccc3[nH]2)c2c(N)ncnc21 : > 500 nM
Nc1ncnc2c1c(-c1cc3cc(O)ccc3[nH]1)nn2C1CCN(C(=O)C2CC2)CC1 : < 500 nM
CC(C)n1nc(-c2cc3cc(O)c(Cl)cc3[nH]2)c2c(N)ncnc21 : > 500 nM
CN1CCN(C2CC(n3nc(-c4cc5cc(O)ccc5[nH]4)c4c(N)ncnc43)C2)CC1 (centres unmarked) : < 500 nM
CC(=O)N1CCC(n2nc(-c3cc4c(Cl)ccc(O)c4[nH]3)c3c(N)ncnc32)CC1 : < 500 nM
